- System Under Test: T1, TGFβ1 (R&D Systems)
- T1 construct: also called TGFB1
- T1 sequence (P01137 279-390): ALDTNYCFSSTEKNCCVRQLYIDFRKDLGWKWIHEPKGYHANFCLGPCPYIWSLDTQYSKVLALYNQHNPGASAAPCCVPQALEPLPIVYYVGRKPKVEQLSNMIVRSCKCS
- Protocol Summary: SPR full titration
Param label: returns label 1 when Kd < 2 nM, returns label 0 otherwise, including exact equality.

Example cases with answers are listed next.
affinity matured HcLb 268 (antibody, V domains shown, full IgG; constant regions not restated) VH: EVQLVQSGAEVKKPGASVKVSCKTSGYIFMKYWMNWVRQAPGAGLDWMGQIFPAWGMTNYNEMFEGRVTLTADTSTSTAYMELSSLRAGDIAVYYCARGYGNYALDAMDYWGQGTLVTVSS VL: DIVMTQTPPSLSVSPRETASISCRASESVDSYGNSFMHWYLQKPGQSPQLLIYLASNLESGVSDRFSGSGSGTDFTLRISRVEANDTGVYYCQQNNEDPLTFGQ; label 0
affinity matured HcLb 265 (antibody, V domains shown, full IgG; also called canHcLb/55SW/100DY/30IM/31TK/57SM + canHcLb/237ND/242TS) VH: EVQLVQSGAEVKKPGASVKVSCKTSGYTFMKYWMNWVRQAPGAGLDWMGQIFPAWGMTNYNEMFEGRVTLTADTSTSTAYMELSSLRAGDIAVYYCARGYGNYALDAMDYWGQGTLVTVSS VL: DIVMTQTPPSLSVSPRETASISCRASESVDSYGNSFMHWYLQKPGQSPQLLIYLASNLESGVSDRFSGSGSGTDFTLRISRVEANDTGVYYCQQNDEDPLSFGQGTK; label 0
affinity matured HcLb 271 (antibody, V domains shown, full IgG; also called canHcLb/55SW/100DY/57SM/30IM/31TF + canHcLb/237ND/242TS) VH: EVQLVQSGAEVKKPGASVKVSCKTSGYTFMFYWMNWVRQAPGAGLDWMGQIFPAWGMTNYNEMFEGRVTLTADTSTSTAYMELSSLRAGDIAVYYCARGYGNYALDAMDYWGQGTLVTVSS VL: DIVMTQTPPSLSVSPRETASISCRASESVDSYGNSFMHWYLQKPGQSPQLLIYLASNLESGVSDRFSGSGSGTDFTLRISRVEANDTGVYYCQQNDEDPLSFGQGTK; label 0

## Task Strictly below 2 nM in Kd? affinity matured HcLb 263 (antibody, V domains shown, full IgG; constant regions not restated) VH: EVQLVQSGAEVKKPGASVKVSCKTSGYIFITYWMNWVRQAPGAGLDWMGQIFPAWGSTNYNEMFEGRVTLTADTSTSTAYMELSSLRAGDIAVYYCARGYGNYALDAMDYWGQGTLVTVSS VL: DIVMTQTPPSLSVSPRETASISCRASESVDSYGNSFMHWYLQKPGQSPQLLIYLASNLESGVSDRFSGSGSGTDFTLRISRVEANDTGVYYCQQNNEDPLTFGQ
## Result label 0

## Task Strictly below 2 nM in Kd? affinity matured HcLb 205 (antibody, V domains shown, full IgG; also called canHcLb/S55W/D100Y/T28/I + canHcLb/237ND/242TS) VH: EVQLVQSGAEVKKPGASVKVSCKTSGYIFITYWMNWVRQAPGAGLDWMGQIFPAWGSTNYNEMFEGRVTLTADTSTSTAYMELSSLRAGDIAVYYCARGYGNYALDAMDYWGQGTLVTVSS VL: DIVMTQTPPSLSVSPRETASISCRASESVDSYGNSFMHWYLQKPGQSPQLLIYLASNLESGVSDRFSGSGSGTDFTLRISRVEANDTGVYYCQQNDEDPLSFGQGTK
## Result label 1
